# ASSAYED TARGET: pERK1/2 (Thr202/Tyr204), NCI-1H358 (KRAS G12C) (Homo sapiens, UniProt P01116, G12C)
# Construct: pERK1/2 HTRF read-out
# Sequence (P01116 1-188 isoform P01116-2 G12C): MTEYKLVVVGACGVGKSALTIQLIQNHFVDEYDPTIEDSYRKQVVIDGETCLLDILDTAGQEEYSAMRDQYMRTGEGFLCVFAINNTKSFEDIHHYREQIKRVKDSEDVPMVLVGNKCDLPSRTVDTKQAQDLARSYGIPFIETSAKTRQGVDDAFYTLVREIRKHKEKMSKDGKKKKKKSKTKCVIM
# PROCEDURE SUMMARY: Assay of intracellular pERK1/2 (Thr202/Tyr204) phosphorylation in NCI-H358 cells (KRAS G12C)
# Type: cell-based
# TEST CONTEXT: pERK1/2, 2 days, read-out: NCI-H358 (KRAS G12C) IC50
pIC50: −log10 of the molar value.
The threshold is inclusive: pIC50 of exactly 9 counts as satisfied; values below receive not satisfied.

{"COMPOUND": "Cc1cc(N)cc(-c2nc3c4c(nc(OC[C@@]56CCCN5C[C@H](F)C6)nc4c2F)N(C(C)c2cccnn2)CCO3)c1C(F)(F)F (single isomer, unassigned) [Compound 127]", "ASSAYED TARGET": "pERK1/2 (Thr202/Tyr204), NCI-1H358 (KRAS G12C) (Homo sapiens, UniProt P01116, G12C)", "LABEL CLASS": "not satisfied"}
{"COMPOUND": "CCC(c1cccnc1N)N1CCOc2nc(-c3cc(N)c(F)c(F)c3C(F)(F)F)c(F)c3nc(OC[C@@]45CCCN4C[C@H](F)C5)nc1c23 (single isomer, unassigned) [Compound 216]", "ASSAYED TARGET": "pERK1/2 (Thr202/Tyr204), NCI-1H358 (KRAS G12C) (Homo sapiens, UniProt P01116, G12C)", "LABEL CLASS": "not satisfied"}
{"COMPOUND": "Cc1nc(N)cc(-c2nc3c4c(nc(OC[C@@H]5CCCN5C)nc4c2F)N(C(C)c2cccnc2N)CCO3)c1C(F)(F)F (some centres unmarked)", "ASSAYED TARGET": "pERK1/2 (Thr202/Tyr204), NCI-1H358 (KRAS G12C) (Homo sapiens, UniProt P01116, G12C)", "LABEL CLASS": "not satisfied"}
{"COMPOUND": "Cc1cc(N)cc(-c2nc3c4c(nc(OC[C@H]5CCCN5C)nc4c2F)N(C(C)c2cccnc2N)CCO3)c1C(F)(F)F (single isomer, unassigned) [Compound 110]", "ASSAYED TARGET": "pERK1/2 (Thr202/Tyr204), NCI-1H358 (KRAS G12C) (Homo sapiens, UniProt P01116, G12C)", "LABEL CLASS": "not satisfied"}
{"COMPOUND": "Cc1cc2[nH]ncc2c(-c2nc3c4c(nc(OC[C@@]56CCCN5C[C@H](F)C6)nc4c2F)N(C(C)c2cccnc2N)CCO3)c1C(F)(F)F (some centres unmarked)", "ASSAYED TARGET": "pERK1/2 (Thr202/Tyr204), NCI-1H358 (KRAS G12C) (Homo sapiens, UniProt P01116, G12C)", "LABEL CLASS": "satisfied"}
{"COMPOUND": "CC(c1cccnc1N)N1CCOc2nc(-c3cc(N)cc(Cl)c3C(F)(F)F)c(F)c3nc(OC[C@@]45CCCN4C[C@H](F)C5)nc1c23 (single isomer, unassigned) [Compound 71]", "ASSAYED TARGET": "pERK1/2 (Thr202/Tyr204), NCI-1H358 (KRAS G12C) (Homo sapiens, UniProt P01116, G12C)", "LABEL CLASS": "satisfied"}
{"COMPOUND": "[2H]C1([2H])CC[C@@]2(C([2H])([2H])Oc3nc4c5c(nc(-c6cc(N)c(F)c(C)c6C(F)(F)F)c(F)c5n3)OCCN4C(C)c3cccnc3N)C[C@@H](F)CN12 (single isomer, unassigned) [Compound 124]", "ASSAYED TARGET": "pERK1/2 (Thr202/Tyr204), NCI-1H358 (KRAS G12C) (Homo sapiens, UniProt P01116, G12C)", "LABEL CLASS": "satisfied"}
{"COMPOUND": "CC(c1cccnc1N)N1CCOc2nc(-c3cc(N)cc(Cl)c3C(F)(F)F)c(F)c3nc(OC[C@@H]4CCCN4C)nc1c23 (single isomer, unassigned) [Compound 98]", "ASSAYED TARGET": "pERK1/2 (Thr202/Tyr204), NCI-1H358 (KRAS G12C) (Homo sapiens, UniProt P01116, G12C)", "LABEL CLASS": "satisfied"}
{"COMPOUND": "CC(c1cccnc1N)N1CCOc2nc(-c3cc(N)c(F)cc3C(F)(F)F)c(F)c3nc(OC[C@@]45CCCN4C[C@H](F)C5)nc1c23 (single isomer, unassigned) [Compound 144]", "ASSAYED TARGET": "pERK1/2 (Thr202/Tyr204), NCI-1H358 (KRAS G12C) (Homo sapiens, UniProt P01116, G12C)", "LABEL CLASS": "satisfied"}
{"COMPOUND": "CC(c1cccnc1N)N1CCOc2nc(-c3cc(N)cc(F)c3C(F)(F)F)c(F)c3nc(OC[C@@H]4C[C@@H](F)CN4C)nc1c23 (single isomer, unassigned) [Compound 93]", "ASSAYED TARGET": "pERK1/2 (Thr202/Tyr204), NCI-1H358 (KRAS G12C) (Homo sapiens, UniProt P01116, G12C)", "LABEL CLASS": "not satisfied"}

----------
# ASSAYED TARGET: pERK1/2 (Thr202/Tyr204), NCI-1H441 (KRAS G12V) (Homo sapiens, UniProt P01116, G12V)
# Construct: pERK1/2 HTRF read-out
# Sequence (P01116 1-188 isoform P01116-2 G12V): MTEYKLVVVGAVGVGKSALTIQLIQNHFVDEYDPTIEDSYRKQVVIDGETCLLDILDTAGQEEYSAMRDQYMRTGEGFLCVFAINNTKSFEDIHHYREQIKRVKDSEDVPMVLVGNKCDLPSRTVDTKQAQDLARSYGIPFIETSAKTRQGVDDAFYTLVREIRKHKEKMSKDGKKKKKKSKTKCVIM
# PROCEDURE SUMMARY: Assay of intracellular pERK1/2 (Thr202/Tyr204) phosphorylation in NCI-H441 cells (KRAS G12V)
# Type: cell-based
# TEST CONTEXT: pERK1/2, 2 days, read-out: NCI-H441 (KRAS G12V) IC50
Below, each of the compounds is paired with its reported IC50 value.

{"COMPOUND": "Cc1cc2[nH]nc(C)c2c(-c2nc3c4c(nc(OC[C@@]56CCCN5C[C@H](F)C6)nc4c2F)N(C(C)c2cccnc2N)[C@@H](C)CO3)c1C(F)(F)F (some centres unmarked) [Compound 378]", "READOUT UNIT": "nM", "IC50": 0.6}
{"COMPOUND": "[2H]C([2H])(Oc1nc2c3c(nc(-c4cc(N)cc(C)c4C(F)(F)F)c(F)c3n1)OCCN2C(C)c1cccnc1N)[C@@H]1C[C@@H](F)CN1C([2H])([2H])[2H] (some centres unmarked) [Compound 122]", "READOUT UNIT": "nM", "IC50": 1}
{"COMPOUND": "Cc1cc(N)cc(-c2nc3c4c(nc(OC[C@@]56CCCN5C[C@H](F)C6)nc4c2F)N(C(C)c2cccnc2N)CCO3)c1C1CC1 (some centres unmarked) [Compound 146]", "READOUT UNIT": "nM", "IC50": 3}
{"COMPOUND": "Cc1n[nH]c2cc3ccccc3c(-c3cc4nc(OC[C@@]56CCCN5C[C@H](F)C6)nc5c4c(n3)OC[C@H](C)N5C(C)c3cccnc3N)c12 (some centres unmarked) [Compound 402]", "READOUT UNIT": "nM", "IC50": 0.6}
{"COMPOUND": "[2H]C([2H])(Oc1nc2c3c(nc(-c4cc(O)cc(Cl)c4C4CC4)c(F)c3n1)OCCN2[C@@H](C)c1cccnc1N)[C@@H]1C[C@@H](F)CN1C([2H])([2H])[2H] (single isomer, unassigned) [Compound 143]", "READOUT UNIT": "nM", "IC50": 2}

----------
Overview of reported IC50 across a group of compounds:
# ASSAYED TARGET: pERK1/2 (Thr202/Tyr204), NCI-1H358 (KRAS G12C) (Homo sapiens, UniProt P01116, G12C)
# Construct: pERK1/2 HTRF read-out
# PROCEDURE SUMMARY: Assay of intracellular pERK1/2 (Thr202/Tyr204) phosphorylation in NCI-H358 cells (KRAS G12C)
# Format: cell-based
# TEST CONTEXT: pERK1/2, 2 days, read-out: NCI-H358 (KRAS G12C) IC50

{"COMPOUND": "Cc1c(F)c(N)cc(-c2nc3c4c(nc(OC[C@@]56CCCN5C[C@H](F)C6)nc4c2F)N(C2CC2)CCO3)c1C(F)(F)F", "ASSAYED TARGET": "pERK1/2 (Thr202/Tyr204), NCI-1H358 (KRAS G12C) (Homo sapiens, UniProt P01116, G12C)", "READOUT UNIT": "nM", "RELATION QUALIFIER": ">", "IC50": 100}
{"COMPOUND": "CC(c1cccnc1N)N1CCOc2nc(-c3cc(O)cc4ccc(F)c(F)c34)c(F)c3ncnc1c23 (single isomer, unassigned) [Compound 29]", "ASSAYED TARGET": "pERK1/2 (Thr202/Tyr204), NCI-1H358 (KRAS G12C) (Homo sapiens, UniProt P01116, G12C)", "READOUT UNIT": "nM", "RELATION QUALIFIER": ">", "IC50": 1000}
{"COMPOUND": "CC(c1cccnc1N)N1c2nc(OC[C@@]34CCCN3C[C@H](F)C4)nc3c(F)c(-c4ccc(F)c5sc(N)nc45)nc(c23)OC[C@@H]1C (stereo partly drawn)", "ASSAYED TARGET": "pERK1/2 (Thr202/Tyr204), NCI-1H358 (KRAS G12C) (Homo sapiens, UniProt P01116, G12C)", "READOUT UNIT": "nM", "RELATION QUALIFIER": "=", "IC50": 0.9}
{"COMPOUND": "Cc1cc2[nH]ncc2c(-c2nc3c4c(nc(OC[C@@]56CCCN5C[C@H](F)C6)nc4c2F)N(C(C)c2cccnc2N)[C@@H](C)CO3)c1C1CC1 (stereo partly drawn)", "ASSAYED TARGET": "pERK1/2 (Thr202/Tyr204), NCI-1H358 (KRAS G12C) (Homo sapiens, UniProt P01116, G12C)", "READOUT UNIT": "nM", "RELATION QUALIFIER": "=", "IC50": 0.4}
{"COMPOUND": "Cc1cc(N)cc(-c2nc3c4c(nc(OC[C@@]56CCCN5C[C@H](F)C6)nc4c2F)N(C(C)c2cccnc2N)CCO3)c1C(F)(F)F (single isomer, unassigned) [Compound 62]", "ASSAYED TARGET": "pERK1/2 (Thr202/Tyr204), NCI-1H358 (KRAS G12C) (Homo sapiens, UniProt P01116, G12C)", "READOUT UNIT": "nM", "RELATION QUALIFIER": "=", "IC50": 8}
{"COMPOUND": "[2H]C1([2H])CN(C(C)c2cccnc2N)c2nc(OC[C@@]34CCCN3C[C@H](F)C4)nc3c(F)c(-c4cc(N)cc(C)c4C(F)(F)F)nc(c23)O1 (single isomer, unassigned) [Compound 154]", "ASSAYED TARGET": "pERK1/2 (Thr202/Tyr204), NCI-1H358 (KRAS G12C) (Homo sapiens, UniProt P01116, G12C)", "READOUT UNIT": "nM", "RELATION QUALIFIER": "=", "IC50": 21}
